molecular target: D(2) dopamine receptor (Homo sapiens) (UniProt P14416); assay: Dopamine D2 receptor (DRD2) small molecule agonists, cell-based qHTS assay (AID 1963594); settings: HEK293-DRD2 cAMP HTRF, agonist mode, 30 min; series mostly up to 92.4 µM; further: nearly all actives have a fitted effect of over 35% in size
Sequence (P14416 whole entry, looked up): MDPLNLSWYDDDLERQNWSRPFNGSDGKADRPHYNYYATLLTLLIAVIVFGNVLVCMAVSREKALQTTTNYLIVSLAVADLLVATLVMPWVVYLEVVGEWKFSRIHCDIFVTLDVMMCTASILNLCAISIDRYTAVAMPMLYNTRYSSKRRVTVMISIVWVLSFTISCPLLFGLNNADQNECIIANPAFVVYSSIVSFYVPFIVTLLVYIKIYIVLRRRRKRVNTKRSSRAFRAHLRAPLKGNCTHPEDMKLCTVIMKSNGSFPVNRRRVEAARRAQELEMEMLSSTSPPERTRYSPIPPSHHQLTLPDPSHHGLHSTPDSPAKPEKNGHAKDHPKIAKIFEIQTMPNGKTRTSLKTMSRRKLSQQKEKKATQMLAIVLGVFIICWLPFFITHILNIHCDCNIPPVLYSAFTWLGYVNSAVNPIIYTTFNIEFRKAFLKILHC
Results filed as inconclusive are left out. Activity calls are given as the source filed them. The call rests on the fitted dose curve.
// one of active, inactive, no free text

Example results:
| MOLECULE | CAT |
| --- | --- |
| CCC/C(=N\OCC)C1=C(O)CC(CC(C)SCC)CC1=O (stereo not given) | inactive |
| CC(=O)NNc1ccccc1 | inactive |
| Oc1cccc(-c2ccccc2)c1 | inactive |
| O=[Se]=O | inactive |
| CCCCNC(=O)OCC#CI | inactive |
| O=C1CN=C(c2ccccc2)c2cc([N+](=O)[O-])ccc2N1 | inactive |
| COCC(C)N(C(=O)CCl)c1c(C)csc1C (stereo not given) | inactive |
| O=[N+]([O-])c1ccc(Cl)c(Cl)c1Cl | inactive |
| Cc1ccc([N+](=O)[O-])[c]2c1[O][Hg]2 | active |
| O=c1[nH]c2cc(Cl)ccc2n1C1CCNCC1 | inactive |

Qu. For COC(=O)C1(O)c2ccccc2-c2ccccc21 , what call appears in the results of this test?
Ans. inactive

Qu. What about this molecule? O=[N+]([O-])c1cccc2cccnc12
Ans. inactive

Qu. What about this molecule? CCS(=O)(=O)c1cccnc1S(=O)(=O)NC(=O)Nc1nc(OC)cc(OC)n1
Ans. inactive

* * *

Experiment: Nuclear factor erythroid 2-related factor 2/antioxidant responsive element (Nrf2/ARE) small molecule agonists: qHTS cell viability counter screen in human keratinocytes (AID 1919968); further: nearly all actives have a fitted effect of over 55% in size
Details: KeratinoSens HaCaT ARE cells viability, CellTiter-Fluor, 24 h; series mostly up to 92.4 µM
Excerpt: U.S. Tox21 Program National Center for Advancing Translational Sciences [NCATS] Division of Preclinical Innovation [DPI] U.S. Environmental Protection Agency [EPA] National Institutes of Environmental Health Sciences [NIEHS] National Toxicology Program [NTP] U.S. Food and Drug Administration [FDA] […] The activation of the report gene under culture conditions can be detected by ONE-Glo Luciferase Assay System (Promega, Madison, WI). […]
Inconclusive results are not listed. Activity calls are given as the source filed them. Calls follow the shape of the dose curve; as a rule, active = well fitted cell-killing curve with a large enough effect in the repeat runs; inconclusive = weak or mixed curves, or effect the other way; inactive = flat fitted curve, though single readings scatter.
// one of active, inactive, no free text

Example results:
| COMPOUND | CAT |
| --- | --- |
| O=C(O)CBr | inactive |
| CC1(C)CON(Cc2ccccc2Cl)C1=O | inactive |
| CCN(CC)C(=S)[S-].CCN(CC)C(=S)[S-].[Zn+2] | active |
| CCOP(=S)(OCC)SC(CCl)N1C(=O)c2ccccc2C1=O (configuration not stated) | inactive |
| O=[N+]([O-])C(Br)Br | inactive |
| Clc1cccc(N2CCNCC2)c1 | inactive |

Qu. For CC(C)C(Nc1ccc(C(F)(F)F)cc1Cl)C(=O)OC(C#N)c1cccc(Oc2ccccc2)c1 (configuration not stated) , what call appears in the results of this test?
Ans. inactive

* * *

assay: p53 small molecule agonists, cell-based qHTS assay: qHTS cell viability counter screen (AID 1963581); conditions: p53RE-bla HCT-116 viability, ATP luminescence, 16 h; series mostly up to 66 µM; further: nearly all actives have a fitted effect of over 45% in size
Results filed as inconclusive are left out. Calls of active or inactive are those of the source. Calls come from the whole dose curve.
// one of label 1 = active, label 0 = inactive, no free text

Qu. For O=C(OC1CCCCC1)c1ccccc1C(=O)OC1CCCCC1 , what call appears in the results of this test?
Ans. label 0

Qu. What about this compound? O=[N+]([O-])c1cccc2c([N+](=O)[O-])cccc12
Ans. label 1

Qu. What about this compound? Clc1cccc2ccccc12
Ans. label 0
